# systemUnderTest: Induced myeloid leukemia cell differentiation protein Mcl-1 (Homo sapiens) (UniProt Q07820)
# Sequence (Q07820 whole entry, looked up): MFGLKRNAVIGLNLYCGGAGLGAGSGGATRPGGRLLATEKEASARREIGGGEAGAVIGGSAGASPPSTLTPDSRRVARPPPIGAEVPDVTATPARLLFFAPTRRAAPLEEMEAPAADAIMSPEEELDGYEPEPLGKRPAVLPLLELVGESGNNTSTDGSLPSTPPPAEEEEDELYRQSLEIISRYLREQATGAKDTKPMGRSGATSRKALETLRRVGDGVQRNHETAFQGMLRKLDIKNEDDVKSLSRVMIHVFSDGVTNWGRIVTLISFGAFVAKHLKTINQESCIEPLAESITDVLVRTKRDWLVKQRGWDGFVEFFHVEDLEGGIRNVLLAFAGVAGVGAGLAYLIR
# experiment: blockers of Bid binding to Mcl-1 – biochemical, TR-FRET, dose response (AID 1418)
# protocolConditions: Mcl-1/Bid peptide binding, TR-FRET (europium/Dy647), 2 hr
Calls of active or inactive are those of the source. The rule behind the calls is not given here.
In this exercise, the only acceptable responses are active, inactive

Each molecule tested received a call. Report the one for Cc1csc(NC(=O)C2CCN(S(=O)(=O)c3cccs3)CC2)n1 .
inactive

Now try Clc1ccc2nc(CN3CCCc4ccccc43)cn2c1 .
inactive

Now try COc1ccc(C2SCC(=O)N2CCCN(C)C)cc1 (configuration not stated) .
inactive

Now try CC(C)(C)NC(=O)c1sccc1C(=O)O .
inactive

Now try O=S(=O)(c1ccc(NC(=S)NCc2cccnc2)cc1)N1CCCCC1 .
inactive

###

# systemUnderTest: Induced myeloid leukemia cell differentiation protein Mcl-1 (Homo sapiens) (UniProt Q07820)
# experiment: blockers of Bid binding to Mcl-1 – biochemical, TR-FRET, dose response (AID 1418)
# protocolConditions: Mcl-1/Bid peptide binding, TR-FRET (europium/Dy647), 2 hr
The source made the active and inactive calls. No rule for the calls is given here.
In this exercise, the only acceptable responses are true (1) = active, false (0) = inactive

As a guide, the following entries are already answered.
[[record]]
compound = "C=CCOC(=O)/C(=C/c1ccco1)NC(=O)/C=C/c1ccccc1"
qualitativelabel = "false (0)"

[[record]]
compound = "S=C(NNc1ccnc2cc(Cl)ccc12)Nc1ccc(Cl)cc1Cl"
qualitativelabel = "true (1)"

[[record]]
compound = "COc1cc(Cl)c(C)cc1NC(=O)CCCn1c(=O)oc2ccccc21"
qualitativelabel = "false (0)"

[[record]]
compound = "O=C(O)C[C@@H]1C(=O)O[C@@H]2C(COC(=O)c3cc(O)c(O)c(O)c3)O[C@@H](OC(=O)c3cc(O)c(O)c(O)c3)[C@@H](OC(=O)c3cc(O)c(O)c4c3[C@H]1[C@H](O)C(=O)O4)[C@H]2OC(=O)c1cc(O)c(O)c(O)c1 (stereo partly drawn)"
qualitativelabel = "true (1)"

[[record]]
compound = "O=S(=O)(c1ccccc1)N1CCN(Cc2ccccc2C(F)(F)F)CC1"
qualitativelabel = "false (0)"


Each compound tested received a call. Report the one for O=C(NCCc1ccccc1)C1CCN(S(=O)(=O)c2ccc(-c3nn[nH]n3)cc2)CC1 .
false (0)

Now try Cc1cccc(N2CCN(C(=O)Cc3ccc(-n4c(=O)[nH]c5ccsc5c4=O)cc3)CC2C)c1 (stereo not drawn) .
false (0)

Now try N=C1/C(=C\c2ccc(-c3cccc(C(=O)O)c3)o2)C(=O)N=C2SC=C(c3ccccc3)N12 .
true (1)

###

# systemUnderTest: Induced myeloid leukemia cell differentiation protein Mcl-1 (Homo sapiens) (UniProt Q07820)
# experiment: blockers of Bid binding to Mcl-1 – biochemical, TR-FRET, dose response (AID 1418)
# protocolConditions: Mcl-1/Bid peptide binding, TR-FRET (europium/Dy647), 2 hr
Calls of active or inactive are those of the source. How the calls were made is not given here.
A collection of compounds and their measured IC50

Quick check: IC50 of NC(=S)Nc1ccc(F)cc1F ?
> 54 µM (inactive)

###

# systemUnderTest: Induced myeloid leukemia cell differentiation protein Mcl-1 (Homo sapiens)
# experiment: blockers of Bid binding to Mcl-1 – biochemical, TR-FRET, dose response (AID 1418)
# protocolConditions: Mcl-1/Bid peptide binding, TR-FRET (europium/Dy647), 2 hr
Calls of active or inactive are those of the source. No rule for the calls is given here.
In this exercise, the only acceptable responses are active, inactive

[[record]]
compound = "CNC(=O)C(=O)NCCN1CCN(C(=O)c2ccc([N+](=O)[O-])cc2)CC1"
qualitativelabel = "inactive"


Each compound tested received a call. Report the one for O=C(O)c1cccc(-n2cccc2/C=C2/NC(=O)N(c3ccc(Cl)cc3)C2=O)c1 .
active

Now try O=C(Cn1[nH]c(=O)c2ccccc2c1=O)OCC(=O)N1CCc2ccccc2C1 .
inactive

Now try CCOc1ccc(-c2ccc(/C=C3/C(=N)N4C(C)=CSC4=NC3=O)o2)c([N+](=O)[O-])c1 .
active

Now try COc1ccc(OC(=O)c2ccncc2)cc1 .
inactive

Now try O=C(O)CCN1C(=O)S/C(=C\c2cccnc2)C1=O .
inactive

Now try C#Cc1ccc([C@@H]2C=C(C(=O)N3CCN(Cc4ccc5c(c4)OCO5)CC3)O[C@H](OCCCCO)C2)cc1 .
inactive

Now try Fc1cc(F)c2nc(Nc3nc4cc5c(cc4s3)OCO5)sc2c1 .
active

Now try O=c1cc(-c2ccc([N+](=O)[O-])cc2)nc2cc(-c3ccc(Cl)cc3)[nH]n12 .
active

Now try Cc1ccc(S(=O)(=O)CCC(=O)OCC(=O)Nc2ncc(Cl)cc2Cl)cc1 .
inactive

Now try O=C(N/N=C/C=C/c1ccc([N+](=O)[O-])cc1)c1cccs1 .
inactive

Now try CCc1ccc(C(CC(=O)c2ccc(Cl)cc2)C(=O)O)cc1 (stereo unspecified) .
inactive

Now try Cc1nn(Cc2ccccc2)c(C)c1NC(=O)CSc1nc(-c2ccccc2)nc2c1cnn2-c1ccccc1 .
active

Now try Cc1ccc(-c2cc(-c3ccc4c(c3)OCO4)c(C#N)c(N)n2)o1 .
active

Now try CN(c1cccc(NC(=O)c2ccccc2N(C)S(C)(=O)=O)c1)S(C)(=O)=O .
inactive

Now try CCNc1ccc2c(Cl)cc(=O)oc2c1 .
inactive

Now try NC(=S)n1[nH]c(-c2ccc([N+](=O)[O-])cc2)c(N=Nc2cccc(Cl)c2)c1=O .
active

Now try Cc1cc(-c2ccco2)n2c(nc3ccccc32)c1C#N .
inactive

Now try COc1ccc(C(=O)Nc2cccc(-c3cc4ccccc4oc3=O)c2)cc1[N+](=O)[O-] .
active

Now try CCN1C(=O)c2cccc3c(S(=O)(=O)Nc4ccccc4OC)ccc1c23 .
inactive

Now try O=C(NCc1ccco1)c1cccn2c(=O)c3cc4ccccc4cc3nc12 .
active

Sourced from PubChem BioAssay AID1418
